Values were extracted from patent US8455475B2.

Biological target: rat B1R (bradykinin receptor 1) (Rattus norvegicus)
Construct: expressed in transfected cells; host or cells: CHO K1 cells
Sequence (P97583 1-337): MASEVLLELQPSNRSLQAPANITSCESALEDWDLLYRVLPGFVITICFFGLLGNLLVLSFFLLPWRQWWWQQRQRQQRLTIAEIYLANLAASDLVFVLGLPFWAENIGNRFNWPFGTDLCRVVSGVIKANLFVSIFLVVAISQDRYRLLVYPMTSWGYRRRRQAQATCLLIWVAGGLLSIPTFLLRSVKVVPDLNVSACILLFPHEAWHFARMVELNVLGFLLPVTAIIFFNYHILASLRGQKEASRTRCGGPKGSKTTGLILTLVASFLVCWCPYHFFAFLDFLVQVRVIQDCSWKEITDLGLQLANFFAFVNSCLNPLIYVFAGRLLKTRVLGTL
Test: FLIPR Ca2+ assay (Fluo-4) on CHO K1 cells stably transfected with the B1R gene of the rat (rB1R cells): % inhibition at 10 μM / IC50, agonist Des-Arg9-bradykinin
Assay type: cell-based
Details: CHO-K1, rat B1R
measured-endpoint: inhibition at 10 µM (%)

INSERT INTO assay_data (compound, assay_target, u, reported_value) VALUES
  ('O=C(NC1CCc2ccc(C(=O)N3CCC4(CCN(Cc5ccc(F)cc5F)CC4)C3)cc21)c1cc(Cl)ccc1F (stereo not shown)', 'rat B1R (bradykinin receptor 1) (Rattus norvegicus)', '%', 69),
  ('O=C(NC1CCc2ccc(C(=O)N3CCC4(CCN(Cc5ccc6nccnc6c5)CC4)CC3)cc21)c1cccc(Cl)c1Cl (stereo not shown)', 'rat B1R (bradykinin receptor 1) (Rattus norvegicus)', '%', 92),
  ('O=C(NC1CCc2ccc(C(=O)N3CCC4(CCN(Cc5c[nH]cn5)CC4)CC3)cc21)c1cc(C(F)(F)F)ccc1Cl (stereo not shown)', 'rat B1R (bradykinin receptor 1) (Rattus norvegicus)', '%', 78),
  ('O=C(c1ccc2c(c1)C(NS(=O)(=O)c1cccc(C(F)(F)F)c1)CC2)N1CCC2(CC1)CCN(c1ccncc1)C2 (stereo not shown)', 'rat B1R (bradykinin receptor 1) (Rattus norvegicus)', '%', 97),
  ('O=C(N[C@@H]1CCc2ccc(C(=O)N3CCC4(CC3)CCN(c3ccncc3)CC4)cc21)c1c(Cl)cccc1C(F)(F)F', 'rat B1R (bradykinin receptor 1) (Rattus norvegicus)', '%', 103),
  ('O=C(c1ccc2c(c1)C(NS(=O)(=O)c1c(Cl)cccc1Cl)CC2)N1CCC2(CC1)CCN(c1ccncc1)C2 (stereo not shown)', 'rat B1R (bradykinin receptor 1) (Rattus norvegicus)', '%', 100),
  ('O=C(c1ccc2c(c1)[C@H](NS(=O)(=O)c1cc(Cl)ccc1Cl)CC2)N1CCC2(CCN(c3ccncc3)CC2)C1', 'rat B1R (bradykinin receptor 1) (Rattus norvegicus)', '%', 103),
  ('O=C(c1ccc2c(c1)C(NS(=O)(=O)Cc1ccccc1F)CC2)N1CCC2(CCN(c3ccncc3)CC2)C1 (stereo not shown)', 'rat B1R (bradykinin receptor 1) (Rattus norvegicus)', '%', 104),
  ('CCn1cc(CN2CCC3(CC2)CCN(C(=O)c2ccc4c(c2)C(NC(=O)c2cccc(Cl)c2Cl)CC4)CC3)c(C)n1 (stereo not shown)', 'rat B1R (bradykinin receptor 1) (Rattus norvegicus)', '%', 69),
  ('COc1ccc(C(=O)NC2CC(C)(C)c3ccc(C(=O)N4CCC5(CC4)CCN(c4ccncc4)CC5)cc32)c(F)c1 (stereo not shown)', 'rat B1R (bradykinin receptor 1) (Rattus norvegicus)', '%', 102),
  ('O=C(NC1CCc2ccc(C(=O)N3CCC4(CC3)CCN(c3ccc(C(F)(F)F)cc3)CC4)cc21)c1cc(F)c(F)cc1Cl (stereo not shown)', 'rat B1R (bradykinin receptor 1) (Rattus norvegicus)', '%', 104),
  ('CCCNC(=O)N1CCC2(CC1)CCN(C(=O)c1ccc3c(c1)C(NC(=O)c1ccccc1Cl)CC3)CC2 (stereo not shown)', 'rat B1R (bradykinin receptor 1) (Rattus norvegicus)', '%', 91),
  ('O=C(c1ccc2c(c1)C(NS(=O)(=O)Cc1cccc(Cl)c1)CC2)N1CCC2(CCN(c3ccncc3)CC2)C1 (stereo not shown)', 'rat B1R (bradykinin receptor 1) (Rattus norvegicus)', '%', 69),
  ('CC1(C)Cc2ccc(C(=O)N3CCC4(CC3)CCN(c3ccncc3)CC4)cc2C1NS(=O)(=O)CCc1ccccc1Cl (stereo not shown)', 'rat B1R (bradykinin receptor 1) (Rattus norvegicus)', '%', 101),
  ('COc1ccc(N2CCC3(CCN(C(=O)c4ccc5c(c4)[C@H](NC(=O)c4ccccc4Cl)CC5)C3)CC2)cc1', 'rat B1R (bradykinin receptor 1) (Rattus norvegicus)', '%', 98),
  ('CC(C)CN1CCC2(CC1)CCN(C(=O)c1ccc3c(c1)C(NC(=O)c1c(F)cccc1Cl)CC3)C2 (stereo not shown)', 'rat B1R (bradykinin receptor 1) (Rattus norvegicus)', '%', 83),
  ('COc1ccc(C(=O)NC2CCc3ccc(C(=O)N4CCC5(CC4)CCN(c4ccncc4)C5)cc32)c(Cl)c1 (stereo not shown)', 'rat B1R (bradykinin receptor 1) (Rattus norvegicus)', '%', 102),
  ('O=C(NC1CCc2ccc(C(=O)N3CCCC4(CC3)CCN(c3ccncc3)CC4)cc21)c1ccccc1Cl (stereo not shown)', 'rat B1R (bradykinin receptor 1) (Rattus norvegicus)', '%', 102),
  ('COc1ccc(C(=O)NC2CCc3ccc(C(=O)N4CCC5(CC4)CCN(c4ccncc4)CC5)cc32)c(F)c1 (stereo not shown)', 'rat B1R (bradykinin receptor 1) (Rattus norvegicus)', '%', 107),
  ('CC1(C)CC(NC(=O)c2ccc(Cl)s2)c2cc(C(=O)N3CCC4(CC3)CCN(c3ccncc3)CC4)ccc21 (stereo not shown)', 'rat B1R (bradykinin receptor 1) (Rattus norvegicus)', '%', 102),
  ('O=C(c1ccc2c(c1)[C@H](N1Cc3cccc(Cl)c3C1=O)CC2)N1CCC2(CCN(c3ccncc3)CC2)C1', 'rat B1R (bradykinin receptor 1) (Rattus norvegicus)', '%', 104),
  ('O=C(NC1CCc2ccc(C(=O)N3CCC4(CCC(N5CCC5)CC4)CC3)cc21)c1ccccc1Cl (stereo not shown)', 'rat B1R (bradykinin receptor 1) (Rattus norvegicus)', '%', 98),
  ('CC1(C)Cc2ccc(C(=O)N3CCC4(CC3)CCN(c3ccncc3)CC4)cc2C1NC(=O)c1cc(C(F)(F)F)ccc1Cl (stereo not shown)', 'rat B1R (bradykinin receptor 1) (Rattus norvegicus)', '%', 104),
  ('Cc1cccc(C(=O)NC2CCc3ccc(C(=O)N4CCC5(CCN(c6ccncc6)CC5)C4)cc32)c1C (stereo not shown)', 'rat B1R (bradykinin receptor 1) (Rattus norvegicus)', '%', 103),
  ('CCn1cc(CN2CCC3(CC2)CCN(C(=O)c2ccc4c(c2)C(NC(=O)c2c(F)cccc2Cl)CC4)C3)c(C)n1 (stereo not shown)', 'rat B1R (bradykinin receptor 1) (Rattus norvegicus)', '%', 52),
  ('COc1cc(C)c(C(=O)NC2CCc3ccc(C(=O)N4CCC5(CCN(C(=O)c6cc(C)nn6C(C)(C)C)CC5)C4)cc32)c(C)c1 (stereo not shown)', 'rat B1R (bradykinin receptor 1) (Rattus norvegicus)', '%', 67),
  ('CN(C(=O)C(c1ccccc1)c1ccccc1Cl)C1CCc2ccc(C(=O)N3CCC4(CC3)CCN(c3ccncc3)CC4)cc21 (stereo not shown)', 'rat B1R (bradykinin receptor 1) (Rattus norvegicus)', '%', 96),
  ('Cc1nc[nH]c1CN1CCC2(CC1)CCN(C(=O)c1ccc3c(c1)C(NC(=O)c1ccccc1Cl)CC3)CC2 (stereo not shown)', 'rat B1R (bradykinin receptor 1) (Rattus norvegicus)', '%', 98);
